targetSystem: Recombinant Human CTLA4-Fc chimera (R&D systems) (human) (UniProt P16410)
assayNotes: ELISA, signal over SA
Provide the reported ELISA S/N(SA) of each item.
Answers are plain numbers.

These solved cases illustrate the format of a correct answer.
1) GGCRHPVLPIWSSHFCPW (peptide, not shown: large carriers; small tags and cut ends) [C4m3127-4th-NNS6-94] | 5.9
2) GGCRHPFLPIVSLHFCPF (peptide, not shown: large carriers; small tags and cut ends) [C4m#19-5th2w-NNS6-51] | 15.8
3) GGCFHPFLPIRSCHFCAR (peptide, not shown: large carriers; small tags and cut ends) [C4m#19-5th2w-NNS6-27] | 9.9
4) GGCLHPWLPIRSFHFCGA (peptide, not shown: large carriers; small tags and cut ends) [C4m#19-5th2w-NNS6-53] | 11.4
5) GGCCHPWLPIVSTHFCGL (peptide, not shown: large carriers; small tags and cut ends) [C4m#19-5th4w-NN6-93] | 28.9

Please supply ELISA S/N(SA) for each of the following items, keeping them in order.
1. GGCWHPFLPIQSLHFCGV (peptide, not shown: large carriers; small tags and cut ends) [C4m#19-5th4w-NN6-56]
2. GGCWHPYLPIRSVHFCGR (peptide, not shown: large carriers; small tags and cut ends) [C4m#19-5th2w-NNS6-12]

1. 27.1
2. 20.4
